# tested-on: Human PDGFRα, cytoplasmic domain (GST-PDGFRα) (Homo sapiens, UniProt P16234)
# Sequence (P16234 550-1089 T674I): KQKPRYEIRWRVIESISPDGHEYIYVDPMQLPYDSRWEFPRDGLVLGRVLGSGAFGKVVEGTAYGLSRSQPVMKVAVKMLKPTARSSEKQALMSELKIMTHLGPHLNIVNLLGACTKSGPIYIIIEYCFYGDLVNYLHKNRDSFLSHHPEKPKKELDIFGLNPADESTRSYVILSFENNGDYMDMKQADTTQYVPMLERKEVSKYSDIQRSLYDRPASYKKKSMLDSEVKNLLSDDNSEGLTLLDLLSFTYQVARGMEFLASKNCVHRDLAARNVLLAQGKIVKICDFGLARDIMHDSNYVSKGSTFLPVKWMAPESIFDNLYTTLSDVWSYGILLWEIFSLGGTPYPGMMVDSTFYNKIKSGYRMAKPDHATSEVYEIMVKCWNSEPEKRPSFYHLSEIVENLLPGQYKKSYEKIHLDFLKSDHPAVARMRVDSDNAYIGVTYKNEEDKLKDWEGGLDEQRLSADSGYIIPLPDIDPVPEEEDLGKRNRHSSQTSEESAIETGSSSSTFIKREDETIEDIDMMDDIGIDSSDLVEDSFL
# assay-overview: Human PDGFRα biochemical inhibition assay (off-chip Mobility Shift Assay)
pIC50: −log10 of the molar value.
Listed compounds paired with reported pIC50

Below, each entry is followed by its recorded pIC50 result.
smiles-record	pIC50
Cc1cc(C(=O)Nc2cccc([C@H](C)Nc3cnc4cnn(C)c4n3)c2)cnc1N1CC2(COC2)C1	> 6.52
Cc1c[nH]c2ncc(N[C@@H](C)c3cccc(NC(=O)c4cnn(C5CC5)c4)c3)nc12	> 6.52
Cc1ncc(C(=O)Nc2cccc([C@H](C)Nc3cnc4cnn(C)c4n3)c2)s1	> 6.52

Lab note: next compound to report on.
GET /values?readout=pIC50&system=Human PDGFRα, cytoplasmic domain (GST-PDGFRα) (Homo sapiens, UniProt P16234)&item= `CCn1cc2ncc(N[C@@H](C)c3cccc(NC(=O)c4ccc(CN5CC6(COC6)C5)c(F)c4)c3)nc2n1` 6.00 to 6.52
